# targetUnderTest: LcrF (Yersinia pestis, UniProt P28808)
# Sequence (P28808 whole entry, looked up): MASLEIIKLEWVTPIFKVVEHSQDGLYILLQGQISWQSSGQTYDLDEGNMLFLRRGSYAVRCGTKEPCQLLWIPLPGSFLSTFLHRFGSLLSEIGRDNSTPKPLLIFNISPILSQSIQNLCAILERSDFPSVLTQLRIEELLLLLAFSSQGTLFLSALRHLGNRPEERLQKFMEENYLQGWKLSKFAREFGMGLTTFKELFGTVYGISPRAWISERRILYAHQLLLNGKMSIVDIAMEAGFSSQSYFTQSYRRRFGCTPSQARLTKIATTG
# assayRemarks: biochemical
# Assay type: binding
propertyMeasured: inhibitory activity in LcrF-DNA binding assay (in words)

molecule	result
O=C(Cc1ccc(F)cc1)Nc1ccc(-c2nc3ccc([N+](=O)[O-])cc3n2O)cc1 [Compound 12]	no measurable activity
O=C(CCc1ccc(F)cc1)Nc1ccc(-c2nc3ccc([N+](=O)[O-])cc3n2O)cc1 [Compound 13]	no measurable activity
O=C(NCc1ccc(-c2nc3ccc([N+](=O)[O-])cc3n2O)cc1)c1ccc(F)cc1 [Compound 11]	no measurable activity

----------
# Test system: pET-15b supercoiled plasmid DNA
# assayRemarks: In vitro DNA binding assay
# conditionInfo: 100 μg/mL; agarose gel electrophoresis
propertyMeasured: non-specific DNA binding (effect on plasmid migration)

smilesData	result
COc1ccc(/C=C/C(=O)Nc2ccc(-c3nc4ccc([N+](=O)[O-])cc4n3O)cc2)cc1	non-DNA binding
Cc1cc2nc(-c3ccc(NC(=O)/C=C/c4ccc(F)cc4)cc3)n(O)c2cc1[N+](=O)[O-]	non-DNA binding
O=C(/C=C/c1ccc(F)cc1)Nc1ccc(-c2nc3ccc([N+](=O)[O-])cc3n2O)cc1	non-DNA binding

----------
# targetUnderTest: LcrF (Yersinia pestis)
# assayRemarks: biochemical
# Type: binding
propertyMeasured: inhibitory activity in LcrF-DNA binding assay (in words)

smilesData	result
O=C(/C=C/c1ccc(-n2cnnc2)cc1)Nc1ccc(-c2nc3ccc([N+](=O)[O-])cc3n2O)cc1	loss of activity
COc1ccc(/C=C/C(=O)Nc2ccc(-c3nc4ccc([N+](=O)[O-])cc4n3O)cc2)c(OC)c1	loss of activity
CC(C)c1ccc(/C=C/C(=O)Nc2ccc(-c3nc4ccc([N+](=O)[O-])cc4n3O)cc2)cc1	loss of activity

----------
Catalogue of IC50 readings, one per entry.
# targetUnderTest: SlyA (Salmonella typhimurium, UniProt P40676)
# Sequence (P40676 1-144): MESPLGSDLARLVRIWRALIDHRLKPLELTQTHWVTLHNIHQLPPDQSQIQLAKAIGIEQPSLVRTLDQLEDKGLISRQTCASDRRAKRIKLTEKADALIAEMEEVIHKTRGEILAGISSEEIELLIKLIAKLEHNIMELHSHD

compound	IC50
Cc1cc2nc(-c3ccc(NC(=O)/C=C/c4ccc(F)cc4)cc3)n(O)c2cc1[N+](=O)[O-] [Compound 36]	> 52 µM
COc1ccc(/C=C/C(=O)Nc2ccc(-c3nc4ccc([N+](=O)[O-])cc4n3O)cc2)cc1 [Compound 22]	> 55.2 µM
O=C(/C=C/c1ccc(F)cc1)Nc1ccc(-c2nc3ccc([N+](=O)[O-])cc3n2O)cc1 [Compound 14]	> 53.8 µM
